From: ChEMBL document CHEMBL3244277

ASSAY_DETAILS: Cytotoxicity against chinese hamster V79-4 cells assessed as survival using 5 x 10^5 cells per plate at […] after 24 hrs
Assay type: cell-based, Cricetulus griseus
CONDITION_SUMMARY: read-out: Survival
VALUE_KIND: viability at 24 h, 10 µM (%)
Write down the numeric answer in % and omit the unit.

Here is how some compounds turned out for viability at 24 h, 10 µM.
[
  {
    "COMPOUND": "O=C1CN([C@H]2C[C@@H]2N2CC(=O)NC(=O)C2)CC(=O)N1 (relative stereo)",
    "OUTPUT_UNIT": "%",
    "viability at 24 h, 10 µM": 70
  },
  {
    "COMPOUND": "O=C(O)CN(CC(=O)O)[C@@H]1C[C@H]1N(CC(=O)O)CC(=O)O (relative stereo)",
    "OUTPUT_UNIT": "%",
    "viability at 24 h, 10 µM": 10
  },
  {
    "COMPOUND": "COC(=O)CN(CC(=O)OC)[C@@H]1C[C@H]1N(CC(=O)OC)CC(=O)OC (relative stereo)",
    "OUTPUT_UNIT": "%",
    "viability at 24 h, 10 µM": 90
  }
]

Shifting focus to the compound that follows.
Give viability at 24 h, 10 µM for the following compound: CC(CN(CC(=O)O)CC(=O)O)N(CC(=O)O)CC(=O)O (centres undefined) 94
